Where do these numbers come from? They come from ChEMBL document CHEMBL4177670.

- System: Staphylococcus aureus
- ASSAY_PROCEDURE: Antibacterial activity against Staphylococcus aureus MLS-16 MTCC 2940 after 24 hrs by agar well diffusion method
- Type: functional
- EXPERIMENTAL_PARAMETERS: MLS-16 MTCC 2940, 24 h
Recorded MIC values for a group of compounds are listed next.

# example entries with known answers
{"COMPOUND": "COc1ccc(-n2cc(CN3C(=O)COc4ccc(Cl)cc43)nn2)cc1", "MIC": "1.9 µg/mL"}
{"COMPOUND": "O=C1COc2ccc(Cl)cc2N1Cc1cn(-c2ccc(F)cc2)nn1", "MIC": "1.9 µg/mL"}
{"COMPOUND": "O=C1COc2ccccc2N1Cc1cn(Cc2ccccc2)nn1", "MIC": "1.9 µg/mL"}
{"COMPOUND": "Cc1ccccc1-n1cc(CN2C(=O)COc3ccccc32)nn1", "MIC": "3.9 µg/mL"}
{"COMPOUND": "Cc1ccc(-n2cc(CN3C(=O)COc4ccccc43)nn2)cc1", "MIC": "3.9 µg/mL"}

In: Specify MIC for Cc1ccccc1-n1cc(CN2C(=O)COc3ccc(Cl)cc32)nn1 and stop.
Out: 1.9 µg/mL

In: Specify MIC for O=C(O)c1cn(C2CC2)c2cc(N3CCNCC3)c(F)cc2c1=O [CIPROFLOXACIN] and stop.
Out: 0.9 µg/mL

In: Specify MIC for Cc1ccc(-n2cc(CN3C(=O)COc4ccc(Cl)cc43)nn2)cc1 and stop.
Out: 1.9 µg/mL
